- test system: CIB1 and αIIb interaction (CIB1-GST : F-αIIb peptide) (Homo sapiens)
- Construct: made in house; host or cells: BL-21 plus RIL cells (E. coli)
- Sequence (Q99828 whole entry): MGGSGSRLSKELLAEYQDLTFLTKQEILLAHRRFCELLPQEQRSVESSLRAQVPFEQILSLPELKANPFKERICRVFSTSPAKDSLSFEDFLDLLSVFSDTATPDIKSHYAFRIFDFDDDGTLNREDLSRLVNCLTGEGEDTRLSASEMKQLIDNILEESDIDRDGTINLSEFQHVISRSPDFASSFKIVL
- test details: FP assay, 1536-well qHTS format (primary and confirmatory screen)
- Type: binding
- recorded conditions: qHTS primary screen of LOPAC/NPACT libraries; negative sign = inhibitory curve
value type: Curve Class

[[record]]
compound = "CN(C)c1ccc(NC(=O)NS(=O)(=O)c2ccc(Cl)cc2)cc1 [NCGC00485899-01]"
measured_value = -2.4

[[record]]
compound = "COc1cc(Nc2cc(C#N)nc3cc(OCCCN4CCN(C)CC4)c(OC)cc23)c(Cl)cc1Cl [NCGC00390366-01]"
measured_value = -2.4

[[record]]
compound = "Cl.O=C(CCCCCN1CCN(c2ccccc2-c2ccccc2)CC1)NC1CCCc2ccccc21 (stereo not shown) [NCGC00186032-01]"
measured_value = -1.2

[[record]]
compound = "O=C1NCc2c1c1c3ccccc3[nH]c1c1[nH]c3ccccc3c21 [NCGC00261167-01]"
measured_value = -1.4

[[record]]
compound = "CC(=O)O[C@@H](CO[C@@H]1O[C@H](CO)[C@H](O)[C@H](O)[C@H]1O)[C@]1(C)C=C2CC[C@@H]3C(C)(C)[C@@H](O)CC[C@@]3(C)[C@@H]2CC1 [NCGC00347395-02]"
measured_value = -2.4

[[record]]
compound = "C=C1C(=O)O[C@@H]2[C@H]1[C@H](O)C[C@]1(C)[C@@H](O)CC=C(C)[C@@H]21 [NCGC00180848-02]"
measured_value = -2.4

[[record]]
compound = "CN1CCN(CCCN2c3ccccc3Sc3ccc(C(F)(F)F)cc32)CC1.Cl.Cl [NCGC00261917-01]"
measured_value = -2.4

[[record]]
compound = "COc1ccc(NC(=O)c2ccc(-c3ccc(-c4noc(C)n4)cc3C)cc2)cc1N1CCN(C)CC1.Cl [NCGC00015476-05]"
measured_value = -2.2

[[record]]
compound = "Oc1cc(O)cc(/C=C/c2ccc(O)c(O)c2)c1 [NCGC00094226-07]"
measured_value = -1.2

[[record]]
compound = "Cc1cc(Cn2cnc3c2C[C@@H](C(=O)O)N(C(=O)C(c2ccccc2)c2ccccc2)C3)ccc1N [NCGC00162092-02]"
measured_value = -1.4

[[record]]
compound = "CCCCc1ncc(/C=C(\\Cc2cccs2)C(=O)O)n1Cc1ccc(C(=O)O)cc1.CS(=O)(=O)O [NCGC00261493-01]"
measured_value = -1.4

[[record]]
compound = "CO[C@@H](Cc1ccc(OCCc2nc(-c3ccccc3)oc2C)c2ccsc12)C(=O)O [NCGC00378922-01]"
measured_value = -1.4

[[record]]
compound = "CN(C)CC/C=C1/c2ccccc2Sc2cc(Cl)ccc21.Cl [NCGC00162079-02]"
measured_value = -2.4

[[record]]
compound = "Cc1cc2occ(CN(C)CCN(C)Cc3cn(-c4cccc(C(F)(F)F)c4)c4ccccc34)c(=O)c2cc1C.Cl [NCGC00386701-02]"
measured_value = -2.4

[[record]]
compound = "CC(C)=CCc1ccc(Oc2c(O)cc(C)cc2CO)c(C(=O)O)c1O [NCGC00169025-02]"
measured_value = -2.4

[[record]]
compound = "O=[N+]([O-])/C=C/c1ccc2c(c1)OCO2 [NCGC00186015-01]"
measured_value = -2.2


###

- test system: CIB1 and αIIb interaction (CIB1-GST : F-αIIb peptide) (Homo sapiens)
- Construct: made in house; host or cells: BL-21 plus RIL cells (E. coli)
- test details: FP assay, 1536-well qHTS format (primary and confirmatory screen)
- Format: binding
- recorded conditions: qHTS primary screen hits, Table S2; negative = inhibition
Efficacy (%) vs -30%: at or above is criterion met, below is criterion not met.

[[record]]
compound = "O=C1OC(c2ccc(O)c(S(=O)(=O)[O-])c2)(c2ccc(O)c(S(=O)(=O)[O-])c2)c2c(Br)c(Br)c(Br)c(Br)c21.[Na+].[Na+]"
assigned_label = "criterion not met"

[[record]]
compound = "O=C(O)C(F)(F)F.OCc1cn(Cc2ccc(O)c3ncccc23)cn1"
assigned_label = "criterion not met"

[[record]]
compound = "CN1CCc2cccc3c2[C@H]1Cc1ccc(O)c(O)c1-3"
assigned_label = "criterion not met"

[[record]]
compound = "Cn1cnc2c1c(=O)[nH]c(=O)n2C"
assigned_label = "criterion not met"

[[record]]
compound = "O=C(Nc1nc(-c2ccccc2)cs1)c1ccncc1NS(=O)(=O)c1ccc(Cl)cc1.O=C(O)C(F)(F)F"
assigned_label = "criterion not met"

[[record]]
compound = "CCN(CC)C(=O)N[C@@H]1C=C2c3cccc4[nH]cc(c34)C[C@@H]2N(C)C1"
assigned_label = "criterion not met"

[[record]]
compound = "Cl.O=c1c2ccccc2nc2sc(Nc3cccc(N4CCNCC4)c3)nn12"
assigned_label = "criterion not met"

[[record]]
compound = "CN1CCN(c2ncc3nc(-c4cn(C)c5ccccc45)c(=O)n(Cc4cccs4)c3n2)CC1.O=C(O)C(F)(F)F"
assigned_label = "criterion met"

[[record]]
compound = "O=[N+]([O-])c1ccc(O)c2ncccc12"
assigned_label = "criterion met"

[[record]]
compound = "Cc1cc(O)c2c(c1)C(=O)c1cc(O)cc(O)c1C2=O"
assigned_label = "criterion not met"

[[record]]
compound = "O=C(Cc1ccc(Cl)c(Cl)c1)Nc1ccc(S(=O)(=O)Nc2ccon2)cc1.O=C(O)C(F)(F)F"
assigned_label = "criterion met"

[[record]]
compound = "COc1ccc(-c2csc(NC(=O)c3ccncc3NS(=O)(=O)c3ccc(C)cc3)n2)cc1.O=C(O)C(F)(F)F"
assigned_label = "criterion not met"

[[record]]
compound = "O=C(Nc1nc(-c2ccccc2)cs1)c1ccccc1NS(=O)(=O)c1ccc(F)cc1.O=C(O)C(F)(F)F"
assigned_label = "criterion met"

[[record]]
compound = "O=C(O)c1ccc(S(=O)(=O)N[C@@H](Cc2ccc(O)cc2)C(=O)O)cc1"
assigned_label = "criterion met"

[[record]]
compound = "COc1ccc(-n2ncc3c2CCCC3NC(=O)c2ccccc2Cl)cc1.O=C(O)C(F)(F)F (stereo not shown)"
assigned_label = "criterion met"


###

- test system: GST-CIB1 : F-αIIb peptide (Homo sapiens, UniProt Q99828)
- Construct: made in house; host or cells: BL-21 plus RIL cells (E. coli)
- Sequence (Q99828 whole entry): as above
- test details: FP assay in the presence of glutathione (GSH), thiol reactivity
- Type: binding
- recorded conditions: GSH (+) Assay IC50, FP assay in the presence of glutathione (GSH +)
pIC50: −log10 of the molar value.
value type: pIC50

[[record]]
molecule = "S=C(SSC(=S)N1CCCCC1)N1CCCCC1 [NCGC00181776-01]"
test_system = "GST-CIB1 : F-αIIb peptide (Homo sapiens, UniProt Q99828)"
measured_value = "< 3.92"


###

384-well COUNTERSCREEN Efficacy (%) values for the compounds below.
- test system: GST-CIB1 : F-scrambled peptide (Homo sapiens)
- Construct: made in house; host or cells: BL-21 plus RIL cells (E. coli)
- Sequence (Q99828 whole entry): as above
- test details: FP scrambled-peptide counter screen, 384-well format
- Type: binding
- recorded conditions: F-scrambled peptide
value type: 384-well COUNTERSCREEN Efficacy (%)

[[record]]
compound = "Cc1ccc(S(=O)(=O)Nc2cnccc2C(=O)Nc2nc(-c3ccc(Cl)cc3)cs2)cc1.O=C(O)C(F)(F)F"
measured_value = 60

[[record]]
compound = "N#Cc1cnc(NS(=O)(=O)c2ccc(NC(=O)Cc3ccc(F)c(Cl)c3)cc2)s1.O=C(O)C(F)(F)F"
measured_value = 28

[[record]]
compound = "Oc1c(Cl)cc(Cl)c(Cl)c1Cc1c(O)c(Cl)cc(Cl)c1Cl"
measured_value = 205

[[record]]
compound = "Brc1c(Br)c(Br)c2[nH]nnc2c1Br [NCGC00092352-04, 4,5,6,7-tetrabromobenzotriazole, reference compound]"
measured_value = 35

[[record]]
compound = "O=C(O)C(F)(F)F.O=C(O)c1ccc(-c2ccc3ncnc(NCc4nccs4)c3c2)o1"
measured_value = 48

[[record]]
compound = "N#Cc1cnc(NS(=O)(=O)c2ccc(NC(=O)Cc3ccc(Cl)c(Cl)c3)cc2)s1.O=C(O)C(F)(F)F"
measured_value = 25

[[record]]
compound = "Cc1ccc(-c2cc(-c3nn(-c4nc(C(=O)O)cs4)c(CC4CC4)c3Cc3ccc(S(N)(=O)=O)c(F)c3)ccc2F)o1"
measured_value = 158

[[record]]
compound = "COc1ccc2c(c1)C=C1Cn3c-2c(C2CCCCC2)c2ccc(cc23)C(=O)NS(=O)(=O)N(C)CCOCCN(C)C1=O"
measured_value = 25

[[record]]
compound = "CCCCCCCCOc1ccccc1C(=O)Nc1ccc(C(=O)OCC[N+](C)(CC)CC)cc1.[Br-]"
measured_value = 39

[[record]]
compound = "CN(C)C(=S)SSC(=S)N(C)C [NCGC00091563-02, thiram, reference compound]"
measured_value = 44

[[record]]
compound = "Cc1cc(NS(=O)(=O)c2ccc(NCCc3ccc(Cl)c(Cl)c3)cc2)no1.O=C(O)C(F)(F)F"
measured_value = 23

[[record]]
compound = "S=C(SSC(=S)N1CCCCC1)N1CCCCC1 [NCGC00181776-02, dipentamethylenethiuram disulfide]"
measured_value = 38

[[record]]
compound = "CCOC(=O)c1c(NC(=O)C2CC(Cl)=CCC2C(=O)O)sc2c1CCCCC2.O=C(O)C(F)(F)F (centres unmarked)"
measured_value = 12

[[record]]
compound = "O=C(O)C(F)(F)F.OCc1ccc(-c2ccc3ncnc(NCc4cccs4)c3c2)o1"
measured_value = 34


All figures here come from paper PMC11249646.
